# TEST TARGET: CRTH2 (Homo sapiens (Human))
# Sequence (Q9Y5Y4 whole entry): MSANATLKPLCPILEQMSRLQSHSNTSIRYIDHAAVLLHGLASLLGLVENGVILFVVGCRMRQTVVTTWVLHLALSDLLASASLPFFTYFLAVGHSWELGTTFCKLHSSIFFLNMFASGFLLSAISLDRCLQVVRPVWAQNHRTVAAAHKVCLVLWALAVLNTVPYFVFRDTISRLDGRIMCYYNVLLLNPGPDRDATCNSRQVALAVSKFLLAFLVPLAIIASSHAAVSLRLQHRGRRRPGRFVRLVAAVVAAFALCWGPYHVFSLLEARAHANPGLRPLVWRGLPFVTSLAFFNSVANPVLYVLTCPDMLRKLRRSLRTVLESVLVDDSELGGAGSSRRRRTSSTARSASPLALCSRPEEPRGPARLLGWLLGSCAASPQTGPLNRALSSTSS
# PROTOCOL NOTES: CRTH2 receptor binding inhibitory activity ([3H]-PGD2 displacement, membranes of CRTH2-expressing K562 cell)
# CONDITION NOTES: CRTH2 receptor binding, [3H]-PGD2 displacement, membrane of CRTH2-expressing K562 cell; categorized AAAA/AAA; read-out: Ki
REPORTED ENDPOINT: Ki

| COMPOUND | TEST TARGET | RECORDED VALUE |
| --- | --- | --- |
| CC(C)Oc1ccc(S(=O)(=O)N2C[C@H](n3nc(CC(=O)O)c4ccc(F)cc43)C[C@@H]2C(N)=O)cc1 | CRTH2 (Homo sapiens (Human)) | 100 to 5000 nM |
| CC(C)Oc1ccc(S(=O)(=O)N2CC[C@H](n3nc(CC(=O)O)c4ccc(F)cc43)[C@@H](C)C2)cc1 | CRTH2 (Homo sapiens (Human)) | 100 to 5000 nM |
| CC(C)Oc1ccc(S(=O)(=O)N2C[C@H](n3nc(CC(=O)O)c4ccc(F)cc43)[C@@](C)(F)C2)cc1 (racemic) | CRTH2 (Homo sapiens (Human)) | < 100 nM |
